Parameter refractive index: see the listing below.
# TEST SUMMARY: refractive index (Na D-line) (dimensionless); xn = mol fraction of the nth substance listed
# CONDITION SUMMARY: 333.15 K; 100 kPa; Liquid; Standard Abbe refractometry; x1 = 0.25
MEASUREMENT TYPE: refractive index

>>> print(df.to_string())
                                   compound  measurement_type  observed_value
0  CCCC[N+](CCCC)(CCCC)Cc1ccccc1.[Cl-] [benzyltributylammonium chloride] + OCCOCCO  refractive index          1.4804
1  C[N+](C)(C)Cc1ccccc1.[Cl-] [trimethylbenzylammonium chloride] + OCCOCCO  refractive index          1.4813
2  C[N+](C)(C)Cc1ccccc1.[Cl-] [trimethylbenzylammonium chloride] + OCCOCCOCCO  refractive index          1.4778
3  CCCC[N+](CCCC)(CCCC)Cc1ccccc1.[Cl-] [benzyltributylammonium chloride] + OCC(O)CO  refractive index          1.4948
4  CCCC[N+](CCCC)(CCCC)Cc1ccccc1.[Cl-] [benzyltributylammonium chloride] + OCCO  refractive index           1.484
5  C[N+](C)(C)Cc1ccccc1.[Cl-] [trimethylbenzylammonium chloride] + OCCO  refractive index          1.4849
6  C[N+](C)(C)Cc1ccccc1.[Cl-] [trimethylbenzylammonium chloride] + OCC(O)CO  refractive index          1.5002
7  CCCC[N+](CCCC)(CCCC)Cc1ccccc1.[Cl-] [benzyltributylammonium chloride] + OCCOCCOCCO  refractive index          1.4779

----------
Parameter speed of sound: see the listing below.
# TEST SUMMARY: xn = mol fraction of the nth substance listed
# CONDITION SUMMARY: 303.15 K; 100 kPa; Liquid; Single path-length method; x1 = 0.25
MEASUREMENT TYPE: speed of sound (m/s)

                                   compound  observed_value
0  C[N+](C)(C)Cc1ccccc1.[Cl-] [trimethylbenzylammonium chloride] + OCCO          1805.3
1  C[N+](C)(C)Cc1ccccc1.[Cl-] [trimethylbenzylammonium chloride] + OCCOCCOCCO          1716.9
2  CCCC[N+](CCCC)(CCCC)Cc1ccccc1.[Cl-] [benzyltributylammonium chloride] + OCC(O)CO            1782
3  CCCC[N+](CCCC)(CCCC)Cc1ccccc1.[Cl-] [benzyltributylammonium chloride] + OCCOCCOCCO          1644.2
4  C[N+](C)(C)Cc1ccccc1.[Cl-] [trimethylbenzylammonium chloride] + OCCOCCO          1730.2
5  CCCC[N+](CCCC)(CCCC)Cc1ccccc1.[Cl-] [benzyltributylammonium chloride] + OCCO          1666.2
6  C[N+](C)(C)Cc1ccccc1.[Cl-] [trimethylbenzylammonium chloride] + OCC(O)CO          1923.4
7  CCCC[N+](CCCC)(CCCC)Cc1ccccc1.[Cl-] [benzyltributylammonium chloride] + OCCOCCO          1643.5

----------
# TEST SUMMARY: xn = mol fraction of the nth substance listed
# CONDITION SUMMARY: 288.15 K; 100 kPa; Liquid; Falling or rolling sphere viscometry; x1 = 0.25
Parameter log10 viscosity: see the listing below.
MEASUREMENT TYPE: log10 viscosity (log10 of the value in mPa·s)

>>> df
                                   compound  observed_value
0  CCCC[N+](CCCC)(CCCC)Cc1ccccc1.[Cl-] [benzyltributylammonium chloride] + OCCOCCOCCO            2.70
1  C[N+](C)(C)Cc1ccccc1.[Cl-] [trimethylbenzylammonium chloride] + OCCOCCOCCO            2.67
2  CCCC[N+](CCCC)(CCCC)Cc1ccccc1.[Cl-] [benzyltributylammonium chloride] + OCCOCCO            2.81
3  CCCC[N+](CCCC)(CCCC)Cc1ccccc1.[Cl-] [benzyltributylammonium chloride] + OCCO            2.78
4  C[N+](C)(C)Cc1ccccc1.[Cl-] [trimethylbenzylammonium chloride] + OCCOCCO            2.27
5  C[N+](C)(C)Cc1ccccc1.[Cl-] [trimethylbenzylammonium chloride] + OCCO            1.88
6  C[N+](C)(C)Cc1ccccc1.[Cl-] [trimethylbenzylammonium chloride] + OCC(O)CO            3.27
